Below, each entry is listed alongside its reported CC50.
method: In vitro cellular toxicity in MRC-5 cells
Assay type: cell-based, MRC5
measurementSetup: human, read-out: TC50 (the source's name)

C[C@H](Cn1cnc2c(O)nc(N)nc21)OCP(=O)(O)O = > 330 µM
Nc1nc(O)c2ncn(CC(CO)OCP(=O)(O)O)c2n1 (single isomer, unassigned; form 2) = > 310 µM
C[C@@H](Cn1cnc2c(O)nc(N)nc21)OCP(=O)(O)O = > 330 µM

Note CC50 for the compound shown: Nc1nc2c(ncn2CCOCP(=O)(O)O)c(=O)[nH]1 [GS-438]
30 µM

Return reported CC50. Input compound: Nc1nc2c(ncn2CC(CO)OCP(=O)(O)O)c(=O)[nH]1 (single isomer, unassigned; form 1)
> 310 µM

Return reported CC50. Input compound: CC(COCP(=O)(O)O)n1cnc2c(O)nc(N)nc21 (stereo unspecified)
> 300 µM

----------
Property: CC50; scope: individual compounds
method: Toxicity in vitro against CEM cells by XTT assay
Assay type: cell-based
measurementSetup: human, CCRF-CEM (CEM) cells; read-out: TC50 (the source's name)
Lab book: enter the figure in µM, no units written.

Nc1nc(O)c2ncn(CC(CO)OCP(=O)(O)O)c2n1 (single isomer, unassigned; form 2) = 350

Note CC50 for the compound shown: CC(COCP(=O)(O)O)n1cnc2c(O)nc(N)nc21 (stereo not given)
250

Retrieve CC50 measured for C[C@@H](Cn1cnc2c(O)nc(N)nc21)OCP(=O)(O)O and print it.
300

// Input: Nc1nc2c(ncn2CCOCP(=O)(O)O)c(=O)[nH]1 . Output its CC50 only.
15

----------
Reported selectivity ratio values for the following compounds.
method: Selectivity Index is the ratio of the TC50 to EC50
measurementSetup: read-out: Selectivity index

Some compounds with recorded selectivity ratio:
Nc1nc2c(ncn2CC(CO)OCP(=O)(O)O)c(=O)[nH]1 (single isomer, unassigned; form 1) = > 1
C[C@@H](Cn1cnc2c(O)nc(N)nc21)OCP(=O)(O)O = 25
CC(C)(Cn1cnc2c(O)nc(N)nc21)OCP(=O)(O)O = > 38
CC(COCP(=O)(O)O)n1cnc2c(O)nc(N)nc21 (stereo not given) = 25
CC(OCCn1cnc2c(O)nc(N)nc21)P(=O)(O)O (stereo not given) = > 1
Nc1nc2c(ncn2CCOCP(=O)(O)O)c(=O)[nH]1 = 75
C[C@H](Cn1cnc2c(O)nc(N)nc21)OCP(=O)(O)O = > 500
Nc1ncnc2c1ncn2CCOCP(=O)(O)O = > 27

Specify measured selectivity ratio for Cc1nc2c(O)nc(N)nc2n1CCOCP(=O)(O)O .
> 1

Answer with the recorded selectivity ratio of Nc1nc(O)c2ncn(CC(CO)OCP(=O)(O)O)c2n1 (single isomer, unassigned; form 2) only.
< 1

----------
method: In vitro cellular toxicity in vero cells
Format: cell-based
measurementSetup: read-out: TC50 (the source's name)
valueType: CC50 (µM)
Expressed in µM, but write only the number.

Supply recorded CC50 for Nc1nc2c(ncn2CCOCP(=O)(O)O)c(=O)[nH]1 here.
17

----------
As shown below, each of these molecules has a reported pIC50 value.
Test system: MRC5
method: In vitro antiherpesvirus activity against MRC-5 cells infected with HCMV (AD-169 strain)
Assay type: functional, cell-based
measurementSetup: Homo sapiens
On this scale, pIC50 is minus log10 of a concentration expressed in M (mol/L).

In the examples that follow, each entry is paired with its recorded pIC50.
Nc1nc2c(ncn2COC(CO)CO)c(=O)[nH]1 [GANCICLOVIR] = 5.40
Nc1nc2c(ncn2CC(CO)OCP(=O)(O)O)c(=O)[nH]1 (single isomer, unassigned; form 1) = 5.80
C[C@@H](Cn1cnc2c(O)nc(N)nc21)OCP(=O)(O)O = 4.80
C[C@H](Cn1cnc2c(O)nc(N)nc21)OCP(=O)(O)O = 4.80
Nc1nc2c(ncn2CCOCP(=O)(O)O)c(=O)[nH]1 [GS-438] = 7.05

Consider the molecule CC(COCP(=O)(O)O)n1cnc2c(O)nc(N)nc21 (stereo not drawn) . State its measured pIC50.
5.89

# return recorded pIC50 for entry Nc1nc(O)c2ncn(CC(CO)OCP(=O)(O)O)c2n1 (single isomer, unassigned; form 2)
6.10

----------
System: Vero
method: In vitro antiherpesvirus activity against vero cells infected with HSV-2(G strain)[plaque reduction assay]
Assay type: functional, cell-based
measurementSetup: Chlorocebus sabaeus
valueType: pIC50
Reminder that pIC50 is minus the log10 of a molar concentration.

Nc1nc2c(ncn2COCCO)c(=O)[nH]1 [ACYCLOVIR] = 5.92
Nc1nc2c(ncn2CCOCP(=O)(O)O)c(=O)[nH]1 [GS-438] = 5.96
CC(COCP(=O)(O)O)n1cnc2c(O)nc(N)nc21 (stereo unspecified) = 4.96
CC(OCCn1cnc2c(O)nc(N)nc21)P(=O)(O)O (stereo unspecified) = 3.80
Nc1nc(O)c2ncn(CC(CO)OCP(=O)(O)O)c2n1 (single isomer, unassigned; form 2) = 4.01
Cc1nc2c(O)nc(N)nc2n1CCOCP(=O)(O)O = 3.76
C[C@@H](Cn1cnc2c(O)nc(N)nc21)OCP(=O)(O)O = 4.37
C[C@H](Cn1cnc2c(O)nc(N)nc21)OCP(=O)(O)O = 4.09

# next compound below
Tell me pIC50 of Nc1nc2c(ncn2CC(CO)OCP(=O)(O)O)c(=O)[nH]1 (single isomer, unassigned; form 1) when tested on Vero.
4.00

----------
method: In vitro cellular toxicity in WI-38 cells
Format: cell-based
measurementSetup: human, read-out: TC50 (the source's name)
valueType: CC50

Supply measured CC50 of CC(C)(Cn1cnc2c(O)nc(N)nc21)OCP(=O)(O)O in your reply.
> 330 µM

----------
method: In vitro cellular toxicity in vero cells
Format: cell-based
measurementSetup: chlorocebus sabaeus, read-out: TC50 (the source's name)
Reported CC50 values follow for various molecules

// worked examples, CC50 included
Cc1nc2c(O)nc(N)nc2n1CCOCP(=O)(O)O = > 330 µM
CC(OCCn1cnc2c(O)nc(N)nc21)P(=O)(O)O (stereo not drawn) = > 330 µM
Nc1nc2c(ncn2CC(CO)OCP(=O)(O)O)c(=O)[nH]1 (single isomer, unassigned; form 1) = > 310 µM
C[C@H](Cn1cnc2c(O)nc(N)nc21)OCP(=O)(O)O = > 330 µM
Nc1nc(O)c2ncn(CC(CO)OCP(=O)(O)O)c2n1 (single isomer, unassigned; form 2) = > 310 µM
CC(COCP(=O)(O)O)n1cnc2c(O)nc(N)nc21 (stereo not drawn) = 200 µM

Check the records and state CC50 for CC(C)(OCCn1cnc2c(O)nc(N)nc21)P(=O)(O)O
> 330 µM

Consider the molecule C[C@@H](Cn1cnc2c(O)nc(N)nc21)OCP(=O)(O)O . State its measured CC50.
> 330 µM

----------
method: Toxicity in vitro against CEM cells by XTT assay
Type: cell-based
measurementSetup: human, CCRF-CEM (CEM) cells; read-out: TC50 (the source's name)
valueType: CC50

Use the examples below as a reference point.
Nc1ncnc2c1ncn2CCOCP(=O)(O)O = > 500 µM
CC(OCCn1cnc2c(O)nc(N)nc21)P(=O)(O)O (stereo unspecified) = > 100 µM
Cc1nc2c(O)nc(N)nc2n1CCOCP(=O)(O)O = > 100 µM

Retrieve CC50 measured for CC(C)(Cn1cnc2c(O)nc(N)nc21)OCP(=O)(O)O and print it.
> 100 µM

Write down CC50 measured for item Nc1nc2c(ncn2CC(CO)OCP(=O)(O)O)c(=O)[nH]1 (single isomer, unassigned; form 1)
> 500 µM

Please give the documented CC50 of C[C@H](Cn1cnc2c(O)nc(N)nc21)OCP(=O)(O)O
> 500 µM
